- SYSTEM_TESTED: UniProtKB P23219
- Sequence (P23219 24-599): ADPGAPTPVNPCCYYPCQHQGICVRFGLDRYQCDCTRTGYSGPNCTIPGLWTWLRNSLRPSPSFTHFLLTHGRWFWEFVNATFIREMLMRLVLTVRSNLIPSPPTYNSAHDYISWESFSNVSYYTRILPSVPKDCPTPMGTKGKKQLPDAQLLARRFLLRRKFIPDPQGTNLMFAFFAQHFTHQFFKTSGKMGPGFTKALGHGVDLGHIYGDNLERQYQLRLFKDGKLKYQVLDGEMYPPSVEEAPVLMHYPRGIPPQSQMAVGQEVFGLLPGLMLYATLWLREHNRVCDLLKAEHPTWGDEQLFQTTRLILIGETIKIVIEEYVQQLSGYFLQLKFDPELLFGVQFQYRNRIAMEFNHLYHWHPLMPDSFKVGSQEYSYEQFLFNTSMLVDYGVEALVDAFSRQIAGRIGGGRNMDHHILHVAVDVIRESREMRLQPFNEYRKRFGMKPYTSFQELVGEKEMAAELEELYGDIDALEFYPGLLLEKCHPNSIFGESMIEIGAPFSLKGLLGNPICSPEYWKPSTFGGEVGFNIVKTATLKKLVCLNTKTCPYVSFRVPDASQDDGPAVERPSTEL
- TEST_DETAILS: cell-based
- DETAILS: PGE2 production, human U-937 cells, 10 μM arachidonic acid; read-out: Cox-1 IC50
- Experimental: Compounds were tested as inhibitors of cyclooxygenase activity in whole cell cyclooxygenase assays. Both of these assays measured prostaglandin E2 synthesis in response to arachidonic acid, using a radioimmunoassay. […] For cyclooxygenase assays, osteosarcoma cells are cultured in 1 mL of media in 24-well multidishes (Nunclon) until confluent (1-2×10^5 cells/well). […] Samples are then neutralized by the addition of 100 μL of 1N NaOH and PGE2 levels measured by radioimmunoassay. […]
pIC50: −log10 of the molar value.
Listed below: pIC50 values for each entry.

• COc1ccc2c(c1)c([C@@H]1C[C@H]1C(=O)[O-])c(C)n2Cc1ccc(Br)cc1.[Na+] (relative stereo) [sodium salt] = < 5.00

Consider the record given below.
Short answer please: pIC50, UniProtKB P23219, entry COc1ccc2c(c1)c(C(C)CC(=O)[O-])c(C)n2Cc1ccc(Br)cc1.[Na+] (racemic) [sodium salt] < 5.00

* * *

- SYSTEM_TESTED: UniProt:P35354
- Sequence (P35354 18-604): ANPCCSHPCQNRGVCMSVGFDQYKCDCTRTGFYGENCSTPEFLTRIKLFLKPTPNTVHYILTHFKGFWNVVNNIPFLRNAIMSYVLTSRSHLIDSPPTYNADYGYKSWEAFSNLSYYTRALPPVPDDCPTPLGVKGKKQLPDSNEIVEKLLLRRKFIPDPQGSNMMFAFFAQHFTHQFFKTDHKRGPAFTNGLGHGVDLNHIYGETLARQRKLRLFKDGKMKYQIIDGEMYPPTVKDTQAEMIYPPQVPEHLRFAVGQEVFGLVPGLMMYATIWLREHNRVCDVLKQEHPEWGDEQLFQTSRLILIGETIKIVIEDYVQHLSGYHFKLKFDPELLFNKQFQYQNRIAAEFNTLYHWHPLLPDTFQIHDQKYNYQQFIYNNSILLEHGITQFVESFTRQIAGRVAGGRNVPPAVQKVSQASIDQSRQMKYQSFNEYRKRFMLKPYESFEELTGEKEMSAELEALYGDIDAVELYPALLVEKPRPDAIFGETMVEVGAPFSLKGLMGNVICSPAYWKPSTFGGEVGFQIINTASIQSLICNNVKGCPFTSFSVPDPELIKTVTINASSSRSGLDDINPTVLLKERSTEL
- TEST_DETAILS: cell-based
- DETAILS: PGE2 production, human osteosarcoma 143 cells, 10 μM arachidonic acid; read-out: Cox-2 IC50
Listed below: IC50 values for each entry.
// return numeric value only (unit: nM, not printed)

- COc1ccc2c(c1)c([C@@H]1C[C@H]1C(=O)[O-])c(C)n2Cc1ccc(Br)cc1.[Na+] (relative stereo) [sodium salt]: 46

Consider the record given below.
# input molecule: COc1ccc2c(c1)c(C(C)CC(=O)[O-])c(C)n2Cc1ccc(Br)cc1.[Na+] (racemic) [sodium salt] ; wanted: its IC50 4
